Here's what we have: Ki numbers for Norepinephrine transporter (Rattus norvegicus).
Response body: numeric value in µM, unit text excluded.

{"Molecule": "COC(=O)C1C(c2ccc(-c3cncc(OC)c3)cc2)CC2CCC1N2C (stereo not given)", "Subject of test": "Norepinephrine transporter (Rattus norvegicus)", "Ki / µM": 1.59}

Could you now consider this next molecule?
Give Ki for COC(=O)C1C2CCC(CC1c1ccc(-c3cncc(OC)c3)cc1)N2 (stereo not given)
0.739

---

Listed below: Ki values for each entry.
Biological target: Sodium-dependent serotonin transporter (Rattus norvegicus, UniProt P31652)
Sequence (P31652 whole entry): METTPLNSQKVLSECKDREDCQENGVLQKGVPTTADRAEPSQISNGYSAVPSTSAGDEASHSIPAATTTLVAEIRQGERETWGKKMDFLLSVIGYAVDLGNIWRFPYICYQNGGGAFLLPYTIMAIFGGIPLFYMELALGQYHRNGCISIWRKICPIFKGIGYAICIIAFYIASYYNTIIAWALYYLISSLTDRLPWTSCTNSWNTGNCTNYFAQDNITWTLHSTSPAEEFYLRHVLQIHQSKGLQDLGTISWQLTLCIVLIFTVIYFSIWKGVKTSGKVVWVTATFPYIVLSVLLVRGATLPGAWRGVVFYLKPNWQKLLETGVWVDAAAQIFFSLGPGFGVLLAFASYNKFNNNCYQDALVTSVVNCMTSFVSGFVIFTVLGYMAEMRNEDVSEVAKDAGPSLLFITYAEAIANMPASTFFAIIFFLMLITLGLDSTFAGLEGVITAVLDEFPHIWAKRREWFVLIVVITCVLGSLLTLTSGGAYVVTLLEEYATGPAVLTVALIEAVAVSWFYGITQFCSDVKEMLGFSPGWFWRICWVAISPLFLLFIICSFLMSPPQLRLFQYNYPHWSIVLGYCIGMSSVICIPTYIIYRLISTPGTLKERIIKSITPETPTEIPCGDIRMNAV
Experiment: Displacement of [3H]paroxetine from SERT in rat frontoparietal cerebral cortex
Type: tissue-based
Response body: numeric value in nM, unit text excluded.

Solved entries:
{"Compound": "COC(=O)C1C2CCC(CC1c1ccc(-c3nccs3)cc1)N2 (stereo unspecified)", "Reading": 5.15}
{"Compound": "COC(=O)C1C(c2ccc(-c3cc(F)cc(F)c3)cc2)CC2CCC1N2C (stereo unspecified)", "Reading": 0.41}
{"Compound": "COC(=O)C1C(c2ccc(-c3ccoc3)cc2)CC2CCC1N2C (stereo unspecified)", "Reading": 0.35}
{"Compound": "COC(=O)C1C2CCC(CC1c1ccc(-c3cncc(OC)c3)cc1)N2 (stereo unspecified)", "Reading": 1.56}
{"Compound": "COC(=O)C1C(c2ccc(-c3nccs3)cc2)CC2CCC1N2C (stereo unspecified)", "Reading": 1.67}
{"Compound": "COC(=O)C1C(c2ccc(-c3cnccn3)cc2)CC2CCC1N2C (stereo unspecified)", "Reading": 11.3}
{"Compound": "COC(=O)C1C2CCC(CC1c1ccc(-c3ccco3)cc1)N2 (stereo unspecified)", "Reading": 0.15}
{"Compound": "COC(=O)C1C(c2ccc(-c3cccc(F)c3)cc2)CC2CCC1N2C (stereo unspecified)", "Reading": 0.5}

Could you now consider this next compound?
Give Ki for COC(=O)C1C(c2ccc(-c3cncc(OC)c3)cc2)CC2CCC1N2C (stereo unspecified)
3.91
